# Measurement target: SARS-CoV-2 Main Protease (SARS-CoV-2) (UniProt P0DTD1)
# Measurement setup: 20.0 µM
Please provide measured inhibition for the entries that follow.
Quick note: give the figure in %, leave out the unit.

I am curious: what inhibition value has been reported for Cn1c(-c2ccc(NC(=O)C3CCCCC(=O)N3)cc2)nc2ccccc21 (stereo unspecified) ?
-3.33

I am curious: what inhibition value has been reported for `N#Cc1cccc(CN2CCN(C(=O)CCl)CC2)c1` ?
53.4

I am curious: what inhibition value has been reported for CN(C(=O)C1CCOc2ccc(Cl)cc21)c1ccc(Cl)cn1 (stereo unspecified) ?
0.542

I am curious: what inhibition value has been reported for `O=S(=O)(Cc1ccc(F)cc1)Nc1cccnc1` ?
6.67

I am curious: what inhibition value has been reported for C=CC(=O)N(c1ccc(C(C)(C)C)cc1)C(C(=O)NC(C)(C)C)c1cncc2ccccc12 (stereo unspecified) ?
-17.7

I am curious: what inhibition value has been reported for CN1CCN(C(=O)Cc2c[nH]c3ncccc23)CC1C(=O)NCCc1c[nH]c2ccc(F)cc12 (stereo unspecified) ?
-9.55

I am curious: what inhibition value has been reported for CC(C(=O)Nc1cccc(NC2CCCC2)c1)c1cnccn1 (stereo unspecified) ?
-2.77

I am curious: what inhibition value has been reported for `O=C(NCCc1cccc2ccccc12)c1cc(=O)[nH]c2ccccc12` ?
-40.9

I am curious: what inhibition value has been reported for CC(C)Cn1cc(NC(=O)N2CCC(c3ccccc3)C2)c2ccccc2c1=O (stereo unspecified) ?
-2.21

I am curious: what inhibition value has been reported for `N#Cc1cccc(CNc2ccc(O)cc2)c1` ?
9.73

I am curious: what inhibition value has been reported for NC(=O)[C@@H]1CN(C2CCOCC2)C[C@H]1c1ccccc1 (stereo in doubt) ?
-22.2

---

# Measurement target: SARS-CoV-2 Main Protease (SARS-CoV-2)
# Measurement setup: 20.0 µM
Measured endpoint: inhibition (%)
Quick note: give the figure in %, leave out the unit.

I am curious: what inhibition value has been reported for `O=C(Nc1c[nH]nc1-c1ccccn1)c1cccc2nccn12` ?
2.59

I am curious: what inhibition value has been reported for C=C1CC1C(=O)NC(C)c1ccc(S(=O)(=O)NC)cc1 (stereo unspecified) ?
-2.67

I am curious: what inhibition value has been reported for CC(NC(=O)c1ccc2cn[nH]c2c1)C(=O)Nc1ccc(-n2cnc3ccccc32)cc1 (stereo unspecified) ?
13

I am curious: what inhibition value has been reported for CC(NC(=O)Nc1cccc(N2CCCCC2=O)c1)c1ccn[nH]1 (stereo unspecified) ?
-8.95

I am curious: what inhibition value has been reported for C=CC(=O)N(c1ccc(C(C)(C)C)cc1)C(C(=O)NCC)c1cccnc1 (stereo unspecified) ?
57

I am curious: what inhibition value has been reported for COc1ccc(C2CC(c3ccccc3)=NN2C(=O)CCl)cc1OC (stereo unspecified) ?
100

I am curious: what inhibition value has been reported for `COc1ccccc1OCCNC(=O)c1cc(=O)[nH]c2cccc(OC)c12` ?
84.4

I am curious: what inhibition value has been reported for O=C(NCC1COc2ccccc2O1)c1cc(=O)[nH]c2ccc(F)cc12 (stereo unspecified) ?
3.84

I am curious: what inhibition value has been reported for `N#Cc1cccc(NC(=O)Cc2c[nH]c3ncccc23)c1` ?
2.74

I am curious: what inhibition value has been reported for `NS(=O)(=O)c1ccc(N2CCC(c3ccncc3)CC2)cc1` ?
0.875

I am curious: what inhibition value has been reported for `Cc1ccc(S(=O)(=O)N2CCN(C(=O)c3cc(=O)[nH]c4cc(F)ccc34)CC2)c(C)c1` ?
21.8

---

# Measurement target: SARS-CoV-2 Main Protease (SARS-CoV-2) (UniProt P0DTD1)
# Measurement setup: 20.0 µM
Measured endpoint: inhibition (%)
Quick note: give the figure in %, leave out the unit.

I am curious: what inhibition value has been reported for `COC(=O)c1c(C)n(S(C)(=O)=O)c2ccc(N(C(=O)c3ccco3)S(C)(=O)=O)cc12` ?
47.7

I am curious: what inhibition value has been reported for `CS(=O)(=O)N1CCc2ccc(CN3CCN(C(=O)CCl)CC3)cc2C1` ?
29.9

I am curious: what inhibition value has been reported for `O=C(CCl)N1CCC(C(=O)N2CCCCC2)CC1` ?
18.5

I am curious: what inhibition value has been reported for `O=C(Cc1cccnc1)NCc1ccccc1` ?
1.31

I am curious: what inhibition value has been reported for C=CC(=O)N(c1ccc(N(C)C)c(C)c1)C(C(=O)Nc1c(C)cccc1CC)c1cccnc1 (stereo unspecified) ?
6.4

I am curious: what inhibition value has been reported for `O=C1N(Cc2cccc(Cl)c2)CCN1c1nccc2n[nH]cc12` ?
72.1

I am curious: what inhibition value has been reported for `Cc1ccncc1NC(=O)Cc1ccc(S(N)(=O)=O)cc1` ?
4.76

I am curious: what inhibition value has been reported for `C=CC(=O)N1CCN(Cc2c[nH]c3ccc(C#N)cc23)CC1` ?
-36.2

I am curious: what inhibition value has been reported for `CC1(C)Cc2cccc(OCCNC(=O)c3cc(=O)[nH]c4cc(F)ccc34)c2O1` ?
36.7

I am curious: what inhibition value has been reported for CCCN(CC1COc2ccccc2O1)C(=O)c1cc(=O)[nH]c2cc(F)ccc12 (stereo unspecified) ?
5.21

I am curious: what inhibition value has been reported for `N#Cc1ccc(S(=O)(=O)N2CCN(C(=O)c3cc(=O)[nH]c4cc(F)ccc34)CC2)cc1` ?
6.9

---

Please provide measured inhibition for the entries that follow.
# Measurement target: SARS-CoV-2 Main Protease (SARS-CoV-2) (UniProt P0DTD1)
# Measurement setup: 50.0 µM
Express the reported value numerically, then name its unit.

I am curious: what inhibition value has been reported for `CC(=O)Nc1ccc(C#N)cc1CN1CCN(C(=O)CCl)CC1` ?
43.4%

I am curious: what inhibition value has been reported for `Nc1ncc(S(=O)(=O)c2ccc(Cl)cc2)c(N)n1` ?
-22.1%

I am curious: what inhibition value has been reported for CO[C@@H]1C[C@@H](COc2cccnc2)N(c2ncccn2)C1 (stereo in doubt) ?
-1.19%

I am curious: what inhibition value has been reported for `CC(C)N(C)CC1CCN(c2ccc(S(N)(=O)=O)cc2)CC1` ?
-17.8%

I am curious: what inhibition value has been reported for `N#Cc1ncccc1NC(=O)Cc1cccc(Cl)c1` ?
-15.7%

I am curious: what inhibition value has been reported for `O=C(CCl)N1CCN(Cc2cc(Cl)ccc2CNC(=O)N2CCOCC2)CC1` ?
79%

I am curious: what inhibition value has been reported for CC(C)n1c(NC(=O)C2CCOc3ccccc32)nc2ccccc21 (stereo unspecified) ?
-2.12%

I am curious: what inhibition value has been reported for `O=S(=O)(Nc1ccccc1SCc1cccc(Cl)c1F)c1cc(Cl)sc1Cl` ?
81.3%

I am curious: what inhibition value has been reported for `COc1c(NC(=O)Cc2cccc(Cl)c2Cl)c(C)nn1C` ?
2.19%

I am curious: what inhibition value has been reported for O=C(CCl)N1CC2CC1CN2Cc1cccc(Cl)c1 (stereo unspecified) ?
72.7%

I am curious: what inhibition value has been reported for Cc1ccccc1CNc1ccccc1NC(=O)C(O)c1cccnc1 (stereo unspecified) ?
7.28%

---

# Measurement target: SARS-CoV-2 Main Protease (SARS-CoV-2) (UniProt P0DTD1)
# Measurement setup: 50.0 µM
Measured endpoint: inhibition
Express the reported value numerically, then name its unit.

I am curious: what inhibition value has been reported for `COc1cccc(N2CCN(C(=O)c3cc(=O)[nH]c4ccccc34)CC2)c1` ?
83.3%

I am curious: what inhibition value has been reported for `O=C(CCl)N1CCN(Cc2nc(-c3cccs3)no2)CC1` ?
0%

I am curious: what inhibition value has been reported for `Cc1coc(NC(=O)Nc2cccnc2)n1` ?
8.52%

I am curious: what inhibition value has been reported for C[C@H]1O[C@H](C)C2Oc3cc(O)c4c(=O)c5c6c7c8c(cc(=O)c9c(O)c1c2c(c3c47)c98)O[C@@H]6[C@@H](C)O[C@@H]5C (stereo in doubt) ?
0%

I am curious: what inhibition value has been reported for C=CC(=O)N(c1ccc(C(C)(C)C)cc1)C(C(=O)NCC1CCCO1)c1cccnc1 (centres undefined) ?
25.6%

I am curious: what inhibition value has been reported for C=CC(=O)N(c1ccc(C(C)(C)C)cc1)C(C(=O)NC(C)(C)C)c1cncc(Cl)c1 (centres undefined) ?
13.5%

I am curious: what inhibition value has been reported for `O=C(CCNC(=O)c1c[nH]c2ccccc12)Nc1ccc(-n2cnc3ccccc32)cc1` ?
43.9%

I am curious: what inhibition value has been reported for `COc1ccc(-c2cccc(S(=O)(=O)N3CCN(C(C)=O)CC3)c2)cc1` ?
0%

I am curious: what inhibition value has been reported for C=CC(=O)N(c1ccc(C(C)(C)C)cc1)C(C(=O)Nc1ccc(OC)cc1C)c1cccnc1 (centres undefined) ?
-2.25%

---

Please provide measured inhibition for the entries that follow.
# Measurement target: SARS-CoV-2 Main Protease (SARS-CoV-2)
# Measurement setup: 20.0 µM
Quick note: give the figure in %, leave out the unit.

Recall the recorded inhibition for `O=S(=O)(NCCc1ccccc1)c1ccoc1` with SARS-CoV-2 Main Protease (SARS-CoV-2) and state it.
0

Recall the recorded inhibition for O=C(NCC(O)Cn1ccnn1)c1ccccc1OC1CCC1 (stereo not drawn) with SARS-CoV-2 Main Protease (SARS-CoV-2) and state it.
0

Recall the recorded inhibition for `O=C(/C=C/C=C/c1ccc2c(c1)OCO2)N1CCCCC1` with SARS-CoV-2 Main Protease (SARS-CoV-2) and state it.
0

Recall the recorded inhibition for C=CC(=O)N(c1ccc(C(C)(C)C)cc1)C(C(=O)NC(C)(C)C)c1cnccc1C (stereo not drawn) with SARS-CoV-2 Main Protease (SARS-CoV-2) and state it.
0

Recall the recorded inhibition for C=CC(=O)N(c1ccc(C(C)(C)C)cc1)C(C(=O)NCc1ccc(F)cc1)c1cccnc1 (stereo not drawn) with SARS-CoV-2 Main Protease (SARS-CoV-2) and state it.
79.3

Recall the recorded inhibition for O=C(C1CCCN1C(=O)c1ccccc1)N1CCOCC1 (stereo not drawn) with SARS-CoV-2 Main Protease (SARS-CoV-2) and state it.
0

Recall the recorded inhibition for C=CC(=O)N(c1ccc(C2(C)CC2)cc1)C(C(=O)Nc1cccc(F)c1C)c1cccnc1 (stereo not drawn) with SARS-CoV-2 Main Protease (SARS-CoV-2) and state it.
0

Recall the recorded inhibition for CN(C)C(=O)C[C@@H]1CN(C(=O)c2cnn3c2CCC3)c2ccc(Cl)cc21 (stereo in doubt) with SARS-CoV-2 Main Protease (SARS-CoV-2) and state it.
0

Recall the recorded inhibition for `NS(=O)(=O)c1ccc(N2CCC(CN3CCCCCC3)CC2)cc1` with SARS-CoV-2 Main Protease (SARS-CoV-2) and state it.
-2.46

Recall the recorded inhibition for `O=C(NCc1cccnn1)Nc1cccc(N2CCC2=O)c1` with SARS-CoV-2 Main Protease (SARS-CoV-2) and state it.
0

Recall the recorded inhibition for C=CC(=O)N(c1ccc(C(C)(C)C)cc1)C(C(=O)NC(C)(C)C)c1cncc(OCC)c1 (stereo not drawn) with SARS-CoV-2 Main Protease (SARS-CoV-2) and state it.
-0.816

Recall the recorded inhibition for C=CC(=O)N(c1ccc(S(F)(F)(F)(F)F)cc1)C(C(=O)Nc1c(C)cccc1CC)c1cccnc1 (stereo not drawn) with SARS-CoV-2 Main Protease (SARS-CoV-2) and state it.
4.69

Recall the recorded inhibition for C=CC(=O)N(c1ccc(C(C)(C)C)cc1)C(C(=O)NCCCOC)c1cccnc1 (stereo not drawn) with SARS-CoV-2 Main Protease (SARS-CoV-2) and state it.
12.2

Recall the recorded inhibition for CCC(NC(=O)NCc1cnccn1)c1ccccc1OCC(=O)N1CCCC1 (stereo not drawn) with SARS-CoV-2 Main Protease (SARS-CoV-2) and state it.
0

Recall the recorded inhibition for `CC(C)NC1CCN(c2ccc(S(N)(=O)=O)cc2)CC1` with SARS-CoV-2 Main Protease (SARS-CoV-2) and state it.
0.29

Recall the recorded inhibition for `CC(=O)N1CCN(Cc2cccs2)CC1` with SARS-CoV-2 Main Protease (SARS-CoV-2) and state it.
96.7

Recall the recorded inhibition for `CN(C)C/C=C/C(=O)Nc1c[nH]c2ccccc12` with SARS-CoV-2 Main Protease (SARS-CoV-2) and state it.
0

Recall the recorded inhibition for Cc1cccc(-c2nnnn2C2CC2C)c1NC(=O)CCc1cccnc1 (stereo not drawn) with SARS-CoV-2 Main Protease (SARS-CoV-2) and state it.
0

Recall the recorded inhibition for `Cc1ccncc1NC(=O)Cc1ccccc1` with SARS-CoV-2 Main Protease (SARS-CoV-2) and state it.
-0.63

Recall the recorded inhibition for Cc1cccc(NC(=O)C(C#N)C(=O)C2CCCC2)c1 (stereo not drawn) with SARS-CoV-2 Main Protease (SARS-CoV-2) and state it.
0.78

Recall the recorded inhibition for Cn1nncc1CC(=O)NC(c1ccccc1)c1nc2ccccc2n1C (stereo not drawn) with SARS-CoV-2 Main Protease (SARS-CoV-2) and state it.
0

Recall the recorded inhibition for C=CC(=O)N(c1ccc(C(F)(F)F)cc1)C(C(=O)Nc1ccc(OC)cc1)c1cccnc1 (stereo not drawn) with SARS-CoV-2 Main Protease (SARS-CoV-2) and state it.
60

Recall the recorded inhibition for `CC(C)N(C)C(=O)C1CCN(C(=O)CCl)CC1` with SARS-CoV-2 Main Protease (SARS-CoV-2) and state it.
-0.0976
